Target: Alpha-1A adrenergic receptor (Rattus norvegicus)
Sequence (whole entry): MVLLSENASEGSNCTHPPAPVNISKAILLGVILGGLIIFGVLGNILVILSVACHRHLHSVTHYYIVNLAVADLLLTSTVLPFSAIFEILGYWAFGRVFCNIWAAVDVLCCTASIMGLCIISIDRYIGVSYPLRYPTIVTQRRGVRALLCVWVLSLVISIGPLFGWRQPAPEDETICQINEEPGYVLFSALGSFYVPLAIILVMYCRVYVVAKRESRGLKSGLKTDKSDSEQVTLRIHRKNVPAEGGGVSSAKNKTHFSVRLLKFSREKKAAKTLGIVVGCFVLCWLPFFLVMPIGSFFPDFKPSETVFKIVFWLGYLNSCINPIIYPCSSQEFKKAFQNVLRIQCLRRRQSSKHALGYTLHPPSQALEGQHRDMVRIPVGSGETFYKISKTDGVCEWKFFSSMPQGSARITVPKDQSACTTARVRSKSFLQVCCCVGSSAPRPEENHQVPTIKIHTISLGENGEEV
Assay: Inhibition of noradrenaline-stimulated Wistar rat vas deferens contraction at 10 uM
Format: functional
Measurement Name: inhibition (%)
Give bare numbers, in %.

Hi, could you look up inhibition for each item in my list?
1. Oc1nnc(Cc2ccc(Cl)cc2)c2ccccc12
2. Cn1nc(Cc2ccccc2)c2ccccc2c1=O
3. Cn1nc(Cc2ccc(Cl)cc2)c2ccccc2c1=O
4. C=CCn1nc(Cc2ccc(Cl)cc2)c2ccccc2c1=O

OUT:
1: 76.3; 2: 98.8; 3: 95.4; 4: 70.4

IN: GET /values?readout=inhibition&item= Oc1nnc(Cc2ccc3c(c2)OCO3)c2ccccc12
OUT: 78.8

From: ChEMBL document CHEMBL1147016
